- Tested on: SUDIPGIV (diffuse intrinsic pontine glioma line)
- Measurement Notes: growth inhibition (% activity, log2 RLU normalised to DMSO / staurosporine); higher = more growth inhibition
- Test Parameters: 33 µM
Consider the following molecules; for each one, report its growth inhibition.
Write down the numeric answer in % and omit the unit.

Exercise: Looking for the measured growth inhibition of "NC[C@@H]1O[C@H](O[C@H]2[C@@H](O)[C@H](O[C@@H]3[C@@H](O)[C@H](N)C[C@H](N)[C@H]3O[C@H]3O[C@H](CO)[C@@H](O)[C@H](O)[C@H]3N)O[C@@H]2CO)[C@H](N)[C@@H](O)[C@@H]1O" , can you help?
Solution: -0.26

Exercise: Looking for the measured growth inhibition of Nc1cccc2c1CN(C1CCC(=O)NC1=O)C2=O (stereo not drawn) , can you help?
Solution: 1.6

Exercise: Looking for the measured growth inhibition of "Clc1ccc2c(c1)C(N1CCNCC1)=Nc1ccccc1O2" , can you help?
Solution: 0.284

Exercise: Looking for the measured growth inhibition of CC(=O)Oc1cc2c(s1)CCN(C(C(=O)C1CC1)c1ccccc1F)C2 (stereo not drawn) , can you help?
Solution: -0.967

Exercise: Looking for the measured growth inhibition of "Cc1cn([C@@H]2C[C@@H](O)[C@H](CO)O2)c(=O)[nH]c1=O" , can you help?
Solution: -0.72

Exercise: Looking for the measured growth inhibition of "CCCCC(=O)N(Cc1ccc(-c2ccccc2-c2nnn[nH]2)cc1)[C@H](C(=O)O)C(C)C" , can you help?
Solution: 4.24

Exercise: Looking for the measured growth inhibition of "C[C@@H]1CN(c2c(F)c(F)c3c(=O)c(C(=O)O)cn(C4CC4)c3c2F)C[C@H](C)N1" , can you help?
Solution: -2.13

Exercise: Looking for the measured growth inhibition of "CO[C@H]1O[C@@H]2O[C@@]3(C)CC[C@H]4[C@H](C)CC[C@@H]([C@H]1C)[C@@]24OO3" , can you help?
Solution: 13.7

Exercise: Looking for the measured growth inhibition of CC(NCCc1ccc(O)cc1)C(O)c1ccc(O)cc1 (stereo not drawn) , can you help?
Solution: -0.121

Exercise: Looking for the measured growth inhibition of "CCCCNC(=O)NS(=O)(=O)c1ccc(C)cc1" , can you help?
Solution: 1.65

Exercise: Looking for the measured growth inhibition of COc1ccccc1OCC(O)COC(N)=O (stereo not drawn) , can you help?
Solution: -1

Exercise: Looking for the measured growth inhibition of CC(C)NCC(O)c1ccc(NS(C)(=O)=O)cc1 (stereo not drawn) , can you help?
Solution: 3.05

Exercise: Looking for the measured growth inhibition of "O=C([O-])[C@H](O)[C@@H](O)[C@H](O)[C@H](O)CO.[Na+]" , can you help?
Solution: 1.5
